TEST_SYSTEM: WIZ protein (HiBit-WIZ fusion protein) (Homo sapiens, UniProt O95785+Q96SW2)
Construct: expressed in transfected cells
Sequence (O95785 whole entry, the tested form may be a part): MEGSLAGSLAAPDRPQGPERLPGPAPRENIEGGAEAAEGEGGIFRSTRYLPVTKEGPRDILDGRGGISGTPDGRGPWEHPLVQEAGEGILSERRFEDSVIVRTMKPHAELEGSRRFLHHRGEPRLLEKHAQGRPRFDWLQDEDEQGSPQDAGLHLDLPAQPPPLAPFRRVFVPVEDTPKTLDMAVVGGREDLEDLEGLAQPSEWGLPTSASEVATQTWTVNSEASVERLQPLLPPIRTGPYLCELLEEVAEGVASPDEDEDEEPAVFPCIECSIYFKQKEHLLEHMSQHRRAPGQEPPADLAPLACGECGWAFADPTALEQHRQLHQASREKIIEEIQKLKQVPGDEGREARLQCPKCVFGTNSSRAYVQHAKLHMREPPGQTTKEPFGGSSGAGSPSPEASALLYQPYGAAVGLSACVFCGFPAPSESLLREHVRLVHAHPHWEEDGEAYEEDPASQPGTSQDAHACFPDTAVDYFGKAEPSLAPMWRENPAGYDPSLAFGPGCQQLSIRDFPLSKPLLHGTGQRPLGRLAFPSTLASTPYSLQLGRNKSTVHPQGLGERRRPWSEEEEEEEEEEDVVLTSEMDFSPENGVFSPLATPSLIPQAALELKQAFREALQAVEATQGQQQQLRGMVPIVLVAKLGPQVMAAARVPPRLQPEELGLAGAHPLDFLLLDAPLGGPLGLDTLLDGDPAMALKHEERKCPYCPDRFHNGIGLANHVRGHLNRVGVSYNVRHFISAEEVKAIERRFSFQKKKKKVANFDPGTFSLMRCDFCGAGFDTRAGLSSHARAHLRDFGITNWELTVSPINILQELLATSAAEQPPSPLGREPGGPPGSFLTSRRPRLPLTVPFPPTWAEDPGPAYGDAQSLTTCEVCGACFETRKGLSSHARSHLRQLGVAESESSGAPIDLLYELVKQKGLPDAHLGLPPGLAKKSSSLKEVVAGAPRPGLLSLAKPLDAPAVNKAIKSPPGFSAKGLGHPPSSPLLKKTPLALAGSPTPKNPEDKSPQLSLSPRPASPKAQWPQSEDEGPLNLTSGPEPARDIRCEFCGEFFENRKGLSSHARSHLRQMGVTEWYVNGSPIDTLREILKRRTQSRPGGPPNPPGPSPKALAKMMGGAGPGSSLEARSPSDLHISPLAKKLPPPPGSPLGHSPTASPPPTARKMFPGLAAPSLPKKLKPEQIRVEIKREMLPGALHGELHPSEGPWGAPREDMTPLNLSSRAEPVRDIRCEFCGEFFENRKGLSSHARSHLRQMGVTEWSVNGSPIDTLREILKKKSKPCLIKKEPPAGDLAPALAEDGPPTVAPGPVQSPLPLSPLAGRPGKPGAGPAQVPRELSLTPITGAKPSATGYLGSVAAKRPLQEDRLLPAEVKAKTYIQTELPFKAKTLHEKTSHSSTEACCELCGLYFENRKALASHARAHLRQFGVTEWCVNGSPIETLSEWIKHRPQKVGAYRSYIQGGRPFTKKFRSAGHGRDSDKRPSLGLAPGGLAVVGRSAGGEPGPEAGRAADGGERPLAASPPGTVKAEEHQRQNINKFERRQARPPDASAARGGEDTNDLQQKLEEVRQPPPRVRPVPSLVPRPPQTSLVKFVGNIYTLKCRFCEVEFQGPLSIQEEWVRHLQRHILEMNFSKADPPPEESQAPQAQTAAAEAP
Sequence (Q96SW2 whole entry, the tested form may be a part): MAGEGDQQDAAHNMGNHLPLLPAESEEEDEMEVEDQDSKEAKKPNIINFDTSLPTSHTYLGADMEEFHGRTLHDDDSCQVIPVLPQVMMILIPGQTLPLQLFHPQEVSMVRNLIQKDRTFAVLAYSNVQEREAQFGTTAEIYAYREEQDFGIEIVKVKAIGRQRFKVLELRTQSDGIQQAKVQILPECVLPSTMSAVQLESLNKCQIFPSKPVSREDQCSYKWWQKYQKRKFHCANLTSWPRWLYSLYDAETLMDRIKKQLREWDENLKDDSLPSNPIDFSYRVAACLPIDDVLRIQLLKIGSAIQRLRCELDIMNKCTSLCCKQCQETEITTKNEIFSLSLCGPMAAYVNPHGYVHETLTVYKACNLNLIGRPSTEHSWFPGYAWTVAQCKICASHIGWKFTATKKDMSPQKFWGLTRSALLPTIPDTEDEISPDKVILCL
Sequence (Q16531 whole entry partner, the tested form may be a part): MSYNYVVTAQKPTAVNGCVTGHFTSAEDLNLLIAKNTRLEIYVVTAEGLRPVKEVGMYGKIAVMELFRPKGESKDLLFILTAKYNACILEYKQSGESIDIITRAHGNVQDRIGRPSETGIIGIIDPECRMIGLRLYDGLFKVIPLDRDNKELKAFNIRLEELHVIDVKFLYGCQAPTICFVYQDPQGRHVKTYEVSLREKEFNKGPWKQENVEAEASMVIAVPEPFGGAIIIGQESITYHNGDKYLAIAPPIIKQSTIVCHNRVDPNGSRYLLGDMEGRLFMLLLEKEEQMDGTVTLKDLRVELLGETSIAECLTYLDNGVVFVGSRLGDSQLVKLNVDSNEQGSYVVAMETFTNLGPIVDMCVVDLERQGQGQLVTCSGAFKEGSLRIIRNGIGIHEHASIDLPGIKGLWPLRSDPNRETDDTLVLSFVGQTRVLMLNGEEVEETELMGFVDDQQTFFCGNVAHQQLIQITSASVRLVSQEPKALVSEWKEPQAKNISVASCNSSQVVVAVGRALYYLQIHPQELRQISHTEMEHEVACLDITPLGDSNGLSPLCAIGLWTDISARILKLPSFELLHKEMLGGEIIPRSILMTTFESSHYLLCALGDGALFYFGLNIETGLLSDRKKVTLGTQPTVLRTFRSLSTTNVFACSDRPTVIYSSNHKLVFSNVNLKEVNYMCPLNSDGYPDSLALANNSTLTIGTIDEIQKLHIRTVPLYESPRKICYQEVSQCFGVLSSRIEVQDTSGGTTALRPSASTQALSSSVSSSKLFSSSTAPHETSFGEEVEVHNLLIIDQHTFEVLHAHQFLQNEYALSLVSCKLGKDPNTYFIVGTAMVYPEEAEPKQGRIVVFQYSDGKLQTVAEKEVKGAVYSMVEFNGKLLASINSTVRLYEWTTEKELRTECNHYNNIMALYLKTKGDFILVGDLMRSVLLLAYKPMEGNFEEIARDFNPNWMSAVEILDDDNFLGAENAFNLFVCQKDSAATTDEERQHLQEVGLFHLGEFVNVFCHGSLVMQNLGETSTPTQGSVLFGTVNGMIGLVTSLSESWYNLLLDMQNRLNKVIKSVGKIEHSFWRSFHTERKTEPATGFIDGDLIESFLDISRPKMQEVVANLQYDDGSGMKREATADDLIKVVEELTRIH
ASSAY_SUMMARY: Quantification of WIZ protein levels in HiBit tag fusion protein assay (WIZ HiBit assay in 293T cells)
Assay type: cell-based
RECORDED_CONDITIONS: HEK-293T, 100 − Amax, at 25 uM; 293T cells; read-out: % degradation of WIZ (100 − Amax)
MEASURED_PROPERTY: Dmax at 25 µM (%)

{"RECORD_SMILES": "C[C@H]1C[C@H](Cc2ccn3ncc(N4CCC(=O)NC4=O)c3c2)CCN1S(=O)(=O)C1CC1", "Dmax at 25 µM (%)": 79}
{"RECORD_SMILES": "O=C1CCN(c2cnn3ccc(CN4CCN(Cc5cccnc5)CC4)cc23)C(=O)N1", "Dmax at 25 µM (%)": 50}
{"RECORD_SMILES": "CC(C)(C)CN1CCC(Cc2ccn3ncc(N4CCC(=O)NC4=O)c3c2)CC1", "Dmax at 25 µM (%)": 79}
{"RECORD_SMILES": "O=C1CCN(c2cnn3ccc(CC4CCN(Cc5ccccc5Cl)CC4)cc23)C(=O)N1", "Dmax at 25 µM (%)": 58}

----------
TEST_SYSTEM: WIZ protein (HiBit-WIZ fusion protein) (Homo sapiens, UniProt O95785+Q96SW2)
Construct: expressed in transfected cells
ASSAY_SUMMARY: Quantification of WIZ protein levels in HiBit tag fusion protein assay (WIZ HiBit assay in 293T cells)
Type: cell-based
RECORDED_CONDITIONS: HEK-293T, 100 − Amax, at 25 uM; 293T cells; read-out: % degradation of WIZ (100 − Amax)
MEASURED_PROPERTY: Dmax at 25 µM (%)

{"COMPOUND": "C[C@H]1CN(Cc2ccn3ncc(N4CCC(=O)NC4=O)c3c2)CCN1CC1CCC(C)(C)CC1", "MEASURED_PROPERTY": "Dmax at 25 µM", "UNIT_ABBREVIATION": "%", "ENDPOINT_VALUE": 90}

1 = CC(C)CN1CC[C@H](Cc2ccn3ncc(N4CCC(=O)NC4=O)c3c2)C[C@H]1C
2 = CC(C)S(=O)(=O)N1CCN(Cc2ccn3ncc(N4CCC(=O)NC4=O)c3c2)CC1
[in] Look at 1 and 2 . Which one has the lower recorded Dmax at 25 µM number? Refer to your chosen entry by its label in the reply.
[out] 2
(2: 47%, 1: 86%)

1 = C[C@H]1C[C@@H](Cc2ccn3ncc(N4CCC(=O)NC4=O)c3c2)CCN1CC1CCC(F)(F)CC1
2 = O=C1CCN(c2cnn3ccc(CN4CCN(CC5CCCCC5)CC4=O)cc23)C(=O)N1
[in] Higher Dmax at 25 µM: 1 or 2 ? Refer to your chosen entry by its label in the reply.
[out] 1
(1: 90%, 2: 0%)

----------
TEST_SYSTEM: WIZ protein (HiBit-WIZ fusion protein) (Homo sapiens, UniProt O95785+Q96SW2)
Construct: expressed in transfected cells
ASSAY_SUMMARY: Quantification of WIZ protein levels in HiBit tag fusion protein assay (WIZ HiBit assay in 293T cells)
Type: cell-based
RECORDED_CONDITIONS: HEK-293T, 100 − Amax, at 25 uM; 293T cells; read-out: % degradation of WIZ (100 − Amax)
MEASURED_PROPERTY: Dmax at 25 µM (%)

Worked examples, 4 molecules total:
{"RECORD_SMILES": "C[C@H]1C[C@H](Cc2ccn3ncc(N4CCC(=O)NC4=O)c3c2)CCN1CC1CCC(F)(F)CC1", "MEASURED_PROPERTY": "Dmax at 25 µM", "UNIT_ABBREVIATION": "%", "ENDPOINT_VALUE": 91}
{"RECORD_SMILES": "C[C@H]1C[C@H](Cc2ccn3ncc(N4CCC(=O)NC4=O)c3c2)CCN1CC1CCOCC1", "MEASURED_PROPERTY": "Dmax at 25 µM", "UNIT_ABBREVIATION": "%", "ENDPOINT_VALUE": 89}
{"RECORD_SMILES": "C[C@@H]1C[C@@H](Cc2ccn3ncc(N4CCC(=O)NC4=O)c3c2)CCN1CC1CCC(F)(F)CC1", "MEASURED_PROPERTY": "Dmax at 25 µM", "UNIT_ABBREVIATION": "%", "ENDPOINT_VALUE": 85}
{"RECORD_SMILES": "CC(C)CN1CC[C@H](Cc2ccn3ncc(N4CCC(=O)NC4=O)c3c2)C[C@@H]1C", "MEASURED_PROPERTY": "Dmax at 25 µM", "UNIT_ABBREVIATION": "%", "ENDPOINT_VALUE": 87}

A = C[C@@H]1CN(Cc2ccn3ncc(N4CCC(=O)NC4=O)c3c2)CCN1CC1CCOCC1
B = CC(C)(C)OC(=O)N1CCC(Cc2ccn3ncc(N4CCC(=O)NC4=O)c3c2)CC1
[in] Look at A and B . Which one has the lower recorded Dmax at 25 µM number? Refer to your chosen entry by its label in the reply.
[out] B
(B: 44%, A: 75%)

The origin of these recorded values is patent US11787785B2.
